B1: SLC19A2 (parent)
chain: FASLRPSEPFLTPYLLGPDKNLTE

Variants of: B1
test.method.notes: protein stability index of a GFP-peptide fusion (GPS, HEK-293T) (PSI 1-6); higher = more stable;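 note: lentivirally expressed fusions sorted by FACS into six bins by GFP to DsRed ratio, PSI derived from sequencing read proportions per bin multiplied by bin number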
measurement.conditions: c terminus: a fixed tail appended
Answer each item with its documented protein stability index.
// no unit string in output, number only

## Input Look up and report measured protein stability index for this entry: FASLRPSEPFLTPYLLGPDKNLTQ [E24Q]
## Output 2.06

## Input Look up and report measured protein stability index for this entry: FASLRPSLPFLTPYLLGPDKNLTE [E8L]
## Output 1.26

## Input Look up and report measured protein stability index for this entry: FASLRPSEPFLTPYLLGPDKTLTE [N21T]
## Output 1.56

## Input Look up and report measured protein stability index for this entry: FASLRPSEPFLTPYLLGPDKNLTC [E24C]
## Output 2.46

## Input Look up and report measured protein stability index for this entry: FISLRPSEPFLTPYLLGPDKNLTE [A2I]
## Output 1.66

## Input Look up and report measured protein stability index for this entry: FASLRPSEPFLNPYLLGPDKNLTE [T12N]
## Output 2.05

## Input Look up and report measured protein stability index for this entry: FASLRPSEPFLWPYLLGPDKNLTE [T12W]
## Output 2.17

## Input Look up and report measured protein stability index for this entry: FASLRPSEPFLTPYELGPDKNLTE [L15E]
## Output 2.03

## Input Look up and report measured protein stability index for this entry: FASLRPSEPFLTPYLLGPCKNLTE [D19C]
## Output 1.44

## Input Look up and report measured protein stability index for this entry: FASLRPSEPFLTPYLLGPDKNTTE [L22T]
## Output 2.25

## Input Look up and report measured protein stability index for this entry: FASLRPSEPFLTPYLLGPDANLTE [K20A]
## Output 2.14

## Input Look up and report measured protein stability index for this entry: FASLRPSEPFLTPYLLGPRKNLTE [D19R]
## Output 2.25

## Input Look up and report measured protein stability index for this entry: FASLRFSEPFLTPYLLGPDKNLTE [P6F]
## Output 1.58

## Input Look up and report measured protein stability index for this entry: FASLRPSEPFLTPYLLGPDKNLTY [E24Y]
## Output 2.08

## Input Look up and report measured protein stability index for this entry: FWSLRPSEPFLTPYLLGPDKNLTE [A2W]
## Output 2.21

## Input Look up and report measured protein stability index for this entry: FASLRPQEPFLTPYLLGPDKNLTE [S7Q]
## Output 1.76

## Input Look up and report measured protein stability index for this entry: FASLRPSEPFLTPYLLGPDKNLRE [T23R]
## Output 1.42

## Input Look up and report measured protein stability index for this entry: FASLRPSEPFLTPYLPGPDKNLTE [L16P]
## Output 1.79

## Input Look up and report measured protein stability index for this entry: FASLRPSEMFLTPYLLGPDKNLTE [P9M]
## Output 2.37

## Input Look up and report measured protein stability index for this entry: FASLRPVEPFLTPYLLGPDKNLTE [S7V]
## Output 2.27

## Input Look up and report measured protein stability index for this entry: FASLRPSEPFLTPYLLGPDKNLNE [T23N]
## Output 1.84

## Input Look up and report measured protein stability index for this entry: FDSLRPSEPFLTPYLLGPDKNLTE [A2D]
## Output 3.64
